# Assay system: human TRPC6 (Homo sapiens, UniProt Q9Y210)
# Test protocol: High throughput screening assay: Fluo4/AM calcium fluorescence in HEK293/TREx cells expressing human TRPC6, agonist GSK1702934A (single concentration 10 μM and IC50 curves)
# Particulars: antagonist effect against human TRPC6, 7 concentrations 20 μM to 0.027 μM, triplicate
Each item that follows carries a reported pIC50.
Bear in mind: pIC50 is minus log10 of a mol/L concentration; give just that figure.

Example entries begin here.
# Substance smiles, Assay system, pIC50
records = [
    ("COc1cc(C(=O)N2CCN(c3cnc(N)cc3OC)CC2)ncc1-c1ccc(C(F)(F)F)cc1", "human TRPC6 (Homo sapiens, UniProt Q9Y210)", 7.57),
    ("Nc1ccc(C2CCN(C(=O)c3ccc(-c4ccccc4)cc3)CC2)nn1", "human TRPC6 (Homo sapiens, UniProt Q9Y210)", 5.42),
    ("COc1cc(C(=O)N2CCC(c3ccc(N)nn3)CC2)ncc1-c1ccc(C(F)(F)F)c(F)c1", "human TRPC6 (Homo sapiens, UniProt Q9Y210)", 7.24),
]

Query: Bench note: what pIC50 did `COc1cc(C(=O)N2CCC(c3ccc(N)nn3)CC2)ncc1-c1ccc(C(F)(F)F)c(OC)c1` show?
Result: 6.47

Query: Continue with `CCc1ccc(-c2ccc(C(=O)N3CCC(c4ccc(N)nn4)CC3)cc2)cc1`
Result: 5.70

Query: Another molecule to check: `C[C@@H]1CN(C(=O)c2ccc(-c3ccc(C(F)(F)F)cc3)cc2)CCN1c1ccc(N)nc1`
Result: 5.55

Query: # repeat for `COc1cc(C(=O)N2CCC(c3ccc(N)nn3)CC2)ccc1-c1ccc(OC(F)(F)F)cc1`
Result: 6.04

Query: Now the molecule `COc1cc(C(=O)N2CCC(c3ccc(N)nn3)CC2)ncc1-c1ccc(OCC(F)(F)F)cc1`
Result: 6.96

###

# Assay system: human TRPC6 (Homo sapiens, UniProt Q9Y210)
# Test protocol: High throughput screening assay: Fluo4/AM calcium fluorescence in HEK293/TREx cells expressing human TRPC6, agonist GSK1702934A (single concentration 10 μM and IC50 curves)
# Particulars: antagonist effect against human TRPC6, 7 concentrations 20 μM to 0.027 μM, triplicate
Experimental readout: pIC50
The quantity pIC50 is defined as the negative base-10 logarithm of the molar concentration.

Here is how some molecules turned out for pIC50.
# Molecule, Assay system, pIC50
measured = [
    ("COc1cc(C(=O)N2CCC(c3ccc(N)nn3)CC2)ncc1-c1ccc(OC(F)F)cc1 [Compound 39]", "human TRPC6 (Homo sapiens, UniProt Q9Y210)", 6.49),
    ("COc1cc(C(=O)N2CCC(c3ccc(N)nn3)CC2)ccc1-c1ccc(OCC2CC2(C)C)nc1 (stereo not shown) [Compound 77]", "human TRPC6 (Homo sapiens, UniProt Q9Y210)", 6.80),
    ("COC[C@H]1CN(c2cnc(N)cc2OC)CCN1C(=O)c1cc(OC)c(-c2ccc(C(F)(F)F)cc2)cn1 [Compound 99]", "human TRPC6 (Homo sapiens, UniProt Q9Y210)", 6.52),
]

Now look at this one.
Query: Consider the molecule COc1cc(C(=O)N2CCC(c3ccc(N)nn3)CC2)ccc1-c1ccc(C(F)(F)F)nc1 [Compound 59] and give its measured pIC50.
Result: 6.19

###

# Assay system: human TRPC6 (Homo sapiens)
# Test protocol: High throughput screening assay: Fluo4/AM calcium fluorescence in HEK293/TREx cells expressing human TRPC6, agonist GSK1702934A (single concentration 10 μM and IC50 curves)
# Particulars: antagonist effect against human TRPC6, 7 concentrations 20 μM to 0.027 μM, triplicate
Readings of pIC50 for the listed molecules
By convention, pIC50 is the negative base-10 log of a molar concentration.

# Molecule, pIC50
rows = [
    ("COc1cc(C(=O)N2CCC(c3ccc(N)nn3)CC2)ncc1-c1ccc(OC2CC2)nc1 [Compound 112]", 5.85),
    ("COc1cc(C(=O)N2CCN(c3cnc(N)cc3OC)CC2CC(F)F)ncc1-c1ccc(C(F)(F)F)cc1 (stereo not shown) [Compound 108]", 6.15),
    ("COc1cc(C(=O)N2CCC(c3ccc(N)nc3)CC2)ncc1-c1ccc(F)cc1 [Compound 72]", 7.57),
]

Next, consider the following molecule.
Query: // pIC50 lookup, key: COc1cc(C(=O)N2CCC(c3ccc(N)nn3)CC2)ccc1-c1ccc(OC(C)C)cc1 [Compound 57]
Result: 6.49

###

# Assay system: human TRPC6 (Homo sapiens, UniProt Q9Y210)
# Sequence (Q9Y210 1-931): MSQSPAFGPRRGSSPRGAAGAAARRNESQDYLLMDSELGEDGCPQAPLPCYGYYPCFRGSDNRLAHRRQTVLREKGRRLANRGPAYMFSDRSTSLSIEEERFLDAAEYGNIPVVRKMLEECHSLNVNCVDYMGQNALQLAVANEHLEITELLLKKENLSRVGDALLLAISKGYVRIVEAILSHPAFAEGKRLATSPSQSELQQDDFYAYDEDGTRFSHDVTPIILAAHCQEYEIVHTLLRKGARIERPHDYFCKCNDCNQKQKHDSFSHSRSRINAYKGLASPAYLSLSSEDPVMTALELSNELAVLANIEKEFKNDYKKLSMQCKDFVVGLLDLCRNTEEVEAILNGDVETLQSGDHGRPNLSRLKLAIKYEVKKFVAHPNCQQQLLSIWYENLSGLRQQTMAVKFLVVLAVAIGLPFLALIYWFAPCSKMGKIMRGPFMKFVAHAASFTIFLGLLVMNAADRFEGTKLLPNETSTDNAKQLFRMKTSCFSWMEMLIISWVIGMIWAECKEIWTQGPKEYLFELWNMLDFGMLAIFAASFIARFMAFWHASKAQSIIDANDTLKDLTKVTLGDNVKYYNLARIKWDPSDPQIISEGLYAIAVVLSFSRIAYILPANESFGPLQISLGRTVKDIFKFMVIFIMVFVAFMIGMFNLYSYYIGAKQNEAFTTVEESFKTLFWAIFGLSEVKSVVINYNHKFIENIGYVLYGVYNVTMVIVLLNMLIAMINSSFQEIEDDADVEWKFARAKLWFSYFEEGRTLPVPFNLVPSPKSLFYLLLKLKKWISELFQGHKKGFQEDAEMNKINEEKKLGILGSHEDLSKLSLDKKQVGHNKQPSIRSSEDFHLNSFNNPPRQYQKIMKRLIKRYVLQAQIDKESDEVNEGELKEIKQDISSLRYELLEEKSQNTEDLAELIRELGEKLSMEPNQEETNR
# Test protocol: High throughput screening assay: Fluo4/AM calcium fluorescence in HEK293/TREx cells expressing human TRPC6, agonist GSK1702934A (single concentration 10 μM and IC50 curves)
# Particulars: antagonist effect against human TRPC6, 7 concentrations 20 μM to 0.027 μM, triplicate
pIC50: −log10 of the molar value.
Lab note: class by pIC50, see LOW (below 6), MID (6 to below 7), HIGH (7 or more)

# Molecule, Qualitative label
records = [
    ("COc1cc(C(=O)N2CCN(c3cnc(N)cc3OC)CC2)ncc1-c1ccccc1 [Compound 105]", "HIGH"),
    ("Cc1cc(-c2ccc(C(F)(F)F)cc2)ccc1C(=O)N1CCC(c2ccc(N)nn2)CC1 [Compound 69]", "MID"),
    ("COc1ccc(-c2cnc(C(=O)N3CCC(c4ccc(N)nn4)CC3)cc2OC)cn1 [Compound 46]", "LOW"),
    ("COc1cc(C(=O)N2CCC(c3ccc(N)nn3)CC2)ncc1-c1ccc(C2CC2)nc1 [Compound 43]", "MID"),
    ("COc1cc(C(=O)N2CCC(c3ccc(N)nn3)CC2)ncc1-c1ccc(C(F)(F)F)cc1 [Compound 27]", "HIGH"),
    ("COc1cc(C(=O)N2CCC(c3ccc(N)nn3)CC2)ncc1-c1cccc(F)c1 [Compound 35]", "MID"),
    ("COC[C@H]1CN(c2cnc(N)cc2OC)CCN1C(=O)c1cc(OC)c(-c2ccc(F)cc2)cn1 [Compound 98]", "MID"),
    ("COc1cc(C(=O)N2CCC(c3ccc(N)nc3)CC2)ncc1-c1ccccc1 [Compound 71]", "HIGH"),
]

Query: Which category does the recorded pIC50 put COc1cc(C(=O)N2CCC(c3ccc(N)nn3)CC2)ncc1-c1cccc(OCC(C)C)c1 [Compound 52] in?
Result: MID

Query: Now the same for Nc1ccc(C2CCN(C(=O)c3ccc(-c4cccc(Cl)c4)cc3)CC2)nn1 [Compound 6]
Result: LOW

Query: How about CCOc1ccc(-c2cnc(C(=O)N3CCC(c4ccc(N)nn4)CC3)cc2OC)cn1 [Compound 45] ?
Result: MID

Query: Here is the next molecule: COc1cc(C(=O)N2C[C@@H]3C[C@H]2CN3c2ccc(N)nn2)ccc1-c1ccc(C(F)(F)F)cc1 [Compound 115]
Result: MID

Query: Now consider COc1cc(C(=O)N2CCC(c3ccc(N)nn3)CC2)ncc1-c1ccc(F)cc1 [Compound 36] .
Result: HIGH

Query: What do we get for COc1cc(C(=O)N2CCC(c3ccc(N)nn3)CC2)ncc1-c1ccc2c(c1)OCCO2 [Compound 22] ?
Result: MID

Query: Now give it for Cc1ccc(-c2ccc(C(=O)N3CCC(c4ccc(N)nn4)CC3)cc2)cc1 [Compound 3] too.
Result: LOW

Query: Same question for COc1cc(C(=O)N2CCC(c3ccc(N)nn3)CC2)ncc1-c1ccc2c(c1)OCC2 [Compound 16] please.
Result: MID

Query: // next record COc1cc(C(=O)N2CCN(c3cnc(N)cc3C)C[C@@H]2CO)ncc1-c1ccc(F)cc1 [Compound 93]
Result: HIGH

Query: Now this one: COC[C@H]1CN(c2cnc(N)cc2OC)CCN1C(=O)c1cc(OC)c(-c2ccccc2)cn1 [Compound 100]
Result: MID

Query: Same thing, different molecule: Nc1ccc(C2CCN(C(=O)c3ccc(-c4ccc(Cl)cc4)cc3)CC2)nn1 [Compound 4]
Result: LOW

Query: Here is the next molecule: COc1cc(C(=O)N2CCN(c3ccc(N)nc3)CC2)ncc1-c1ccccc1 [Compound 68]
Result: HIGH
